Molecular target: Prostaglandin G/H synthase 1 (Ovis aries)
Sequence (whole entry): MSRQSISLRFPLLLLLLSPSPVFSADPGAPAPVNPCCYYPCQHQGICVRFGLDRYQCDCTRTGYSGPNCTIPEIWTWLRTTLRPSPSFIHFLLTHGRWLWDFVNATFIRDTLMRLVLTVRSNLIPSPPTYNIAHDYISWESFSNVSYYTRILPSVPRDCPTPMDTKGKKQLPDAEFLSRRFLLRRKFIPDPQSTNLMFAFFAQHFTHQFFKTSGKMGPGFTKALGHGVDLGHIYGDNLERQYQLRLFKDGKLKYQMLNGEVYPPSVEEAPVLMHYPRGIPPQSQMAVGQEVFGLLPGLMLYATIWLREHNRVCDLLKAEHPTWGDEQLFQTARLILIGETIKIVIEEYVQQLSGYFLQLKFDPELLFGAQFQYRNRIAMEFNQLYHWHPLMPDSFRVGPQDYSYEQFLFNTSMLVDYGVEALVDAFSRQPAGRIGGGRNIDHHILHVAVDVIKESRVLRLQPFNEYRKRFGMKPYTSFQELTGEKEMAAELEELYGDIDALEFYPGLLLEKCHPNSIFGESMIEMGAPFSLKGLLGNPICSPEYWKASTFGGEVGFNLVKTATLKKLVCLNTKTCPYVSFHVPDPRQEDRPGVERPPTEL
Test: Percent inhibition against Prostaglandin G/H synthase 1 from ram seminal vesicles at 100 uM
Recorded metric: inhibition
Please give the number followed by its unit.

Recorded results for 4 compounds are shown here.
- Entry smiles: "COc1cc(/C=C/c2cc(/C=C/c3ccc(O)c(OC)c3)on2)ccc1O"
  Test value: "80.8%"
- Entry smiles: "COc1cc(/C=C/c2cc(/C=C/c3ccc(O)cc3)on2)ccc1O"
  Test value: "47.4%"
- Entry smiles: "COc1cc(/C=C/C(=O)CC(=O)/C=C/c2ccc(O)c(OC)c2)ccc1O"
  Test value: "80.5%"
- Entry smiles: "Oc1ccc(/C=C/c2cc(/C=C/c3ccc(O)cc3)[nH]n2)cc1"
  Test value: "44.4%"

Note: attention shifts to another entry.
Find the recorded inhibition belonging to `COc1cc(/C=C/c2cc(/C=C/c3ccc(O)cc3)[nH]n2)ccc1O` and report it.
73.9%
